Target: T1, cynomolgus serum albumin (cynomolgus)
T1 construct: also called CSA; cyno serum albumin
T1 sequence (A2V9Z4 25-608): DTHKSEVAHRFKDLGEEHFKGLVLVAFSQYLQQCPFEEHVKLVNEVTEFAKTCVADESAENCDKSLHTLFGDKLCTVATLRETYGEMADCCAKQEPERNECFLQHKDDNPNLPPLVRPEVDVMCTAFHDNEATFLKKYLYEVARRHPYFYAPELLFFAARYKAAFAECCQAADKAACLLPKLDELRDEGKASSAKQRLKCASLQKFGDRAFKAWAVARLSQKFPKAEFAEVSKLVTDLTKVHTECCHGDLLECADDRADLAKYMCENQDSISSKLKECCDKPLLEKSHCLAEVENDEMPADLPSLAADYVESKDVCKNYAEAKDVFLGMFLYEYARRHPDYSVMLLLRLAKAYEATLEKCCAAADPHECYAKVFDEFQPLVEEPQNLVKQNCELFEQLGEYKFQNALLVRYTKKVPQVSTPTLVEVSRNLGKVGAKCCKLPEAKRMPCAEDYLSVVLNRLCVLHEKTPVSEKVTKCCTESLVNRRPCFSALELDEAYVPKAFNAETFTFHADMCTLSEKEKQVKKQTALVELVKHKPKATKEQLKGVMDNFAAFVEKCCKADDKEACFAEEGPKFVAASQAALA
Assay: BLI (Octet), biotinylated albumin on SA sensor, pH 7.4
measured-quantity: log10(Kd) (log10 of the value in nM)
Note the log scale: values are log10 of Kd expressed in nM.

binder="HSA-22 (designed binder) MIPRGLSEAKPATPEIQEIVDKVKPQLEEKTNETYGKLEAVQYKTQVLANWYQQRWPGSTNYYIKVRAGDNKYMHLKVFNGPWHNYGESSGADRVLTGYQVDKNKDDELTGFHHHHHH" measured_quantity=log10(Kd) quantitative_readout=2.54
binder="HSA-37 (designed binder) MIPRGLSEAKPATPEIQEIVDKVKPQLEEKTNETYGKLEAVQYKTQVLAGFWASKWPGSTNYYIKVRAGDNKYMHLKVFNGPFTAVSKKDAADRVLTGYQVDKNKDDELTGFHHHHHH" measured_quantity=log10(Kd) quantitative_readout=2.34
binder="HSA-20 (designed binder) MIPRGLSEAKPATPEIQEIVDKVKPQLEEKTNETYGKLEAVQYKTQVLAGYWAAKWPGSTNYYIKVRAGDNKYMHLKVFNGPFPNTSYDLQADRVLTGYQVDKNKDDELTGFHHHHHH" measured_quantity=log10(Kd) quantitative_readout=2.33
binder="HSA-31 (designed binder) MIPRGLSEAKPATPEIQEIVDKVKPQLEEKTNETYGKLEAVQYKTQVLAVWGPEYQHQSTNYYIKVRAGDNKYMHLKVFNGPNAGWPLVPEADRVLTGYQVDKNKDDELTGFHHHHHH" measured_quantity=log10(Kd) quantitative_readout=1.92

Could you now look at the following binder, please?
Return value of log10(Kd) for input HSA-36 (designed binder) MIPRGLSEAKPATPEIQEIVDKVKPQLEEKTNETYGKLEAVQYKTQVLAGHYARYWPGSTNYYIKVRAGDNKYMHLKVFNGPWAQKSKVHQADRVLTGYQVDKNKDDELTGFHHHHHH , no commentary.
3.41

Recorded values, source patent US20230272011A1.
